Target: UniProt Q9P1W9
Sequence (Q9P1W9 whole entry): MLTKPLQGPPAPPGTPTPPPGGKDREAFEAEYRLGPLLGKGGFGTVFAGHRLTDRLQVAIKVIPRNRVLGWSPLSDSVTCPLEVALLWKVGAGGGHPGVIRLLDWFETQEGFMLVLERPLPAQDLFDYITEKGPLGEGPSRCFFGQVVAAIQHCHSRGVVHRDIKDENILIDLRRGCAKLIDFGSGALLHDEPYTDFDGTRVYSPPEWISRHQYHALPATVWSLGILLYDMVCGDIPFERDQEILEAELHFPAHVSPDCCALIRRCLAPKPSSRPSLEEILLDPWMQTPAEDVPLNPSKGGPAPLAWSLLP
Test: ADP-Glo Kinase Assay, Pim-2
Format: biochemical
Details: 1 μM compound; read-out: Pim-2 % INH (1 μM)
propertyLabel: inhibition at 1 µM (%)

NCCCNc1nc2c([N+](=O)[O-])c(Br)c(Br)cc2[nH]1	41

(1) CC(C)n1c(N2CC[C@@H](N)C2)nc2c(C#N)c(Br)c(Br)cc21
(2) COC(CN)CNc1nc2c(C#N)c(Br)c(Br)cc2n1C(C)C (centres unmarked) [Example 22AC]
## Task Hi there! Just curious which has the higher inhibition at 1 µM between 1 and 2 . Give the label of your selection.
## Result 1
(1: 82%, 2: 30%)

====

Target: Pim-3 (Homo sapiens (Human), UniProt Q86V86)
Assay: ADP-Glo Kinase Assay, Pim-3
Format: biochemical
Details: 1 μM compound
propertyLabel: Pim-3 % INH (1 μM) (%)

CCn1c(N2CCC[C@H](N)C2)nc2c([N+](=O)[O-])c(Cl)c(Cl)cc21 [Example 1CT]	64
CC(C)n1c(N[C@H]2CCNC2)nc2c([N+](=O)[O-])c(Br)c(Br)cc21 [Example 1BD]	88

====

Target: FLT3wt (Homo sapiens (Human), UniProt P36888)
Sequence (P36888 27-993): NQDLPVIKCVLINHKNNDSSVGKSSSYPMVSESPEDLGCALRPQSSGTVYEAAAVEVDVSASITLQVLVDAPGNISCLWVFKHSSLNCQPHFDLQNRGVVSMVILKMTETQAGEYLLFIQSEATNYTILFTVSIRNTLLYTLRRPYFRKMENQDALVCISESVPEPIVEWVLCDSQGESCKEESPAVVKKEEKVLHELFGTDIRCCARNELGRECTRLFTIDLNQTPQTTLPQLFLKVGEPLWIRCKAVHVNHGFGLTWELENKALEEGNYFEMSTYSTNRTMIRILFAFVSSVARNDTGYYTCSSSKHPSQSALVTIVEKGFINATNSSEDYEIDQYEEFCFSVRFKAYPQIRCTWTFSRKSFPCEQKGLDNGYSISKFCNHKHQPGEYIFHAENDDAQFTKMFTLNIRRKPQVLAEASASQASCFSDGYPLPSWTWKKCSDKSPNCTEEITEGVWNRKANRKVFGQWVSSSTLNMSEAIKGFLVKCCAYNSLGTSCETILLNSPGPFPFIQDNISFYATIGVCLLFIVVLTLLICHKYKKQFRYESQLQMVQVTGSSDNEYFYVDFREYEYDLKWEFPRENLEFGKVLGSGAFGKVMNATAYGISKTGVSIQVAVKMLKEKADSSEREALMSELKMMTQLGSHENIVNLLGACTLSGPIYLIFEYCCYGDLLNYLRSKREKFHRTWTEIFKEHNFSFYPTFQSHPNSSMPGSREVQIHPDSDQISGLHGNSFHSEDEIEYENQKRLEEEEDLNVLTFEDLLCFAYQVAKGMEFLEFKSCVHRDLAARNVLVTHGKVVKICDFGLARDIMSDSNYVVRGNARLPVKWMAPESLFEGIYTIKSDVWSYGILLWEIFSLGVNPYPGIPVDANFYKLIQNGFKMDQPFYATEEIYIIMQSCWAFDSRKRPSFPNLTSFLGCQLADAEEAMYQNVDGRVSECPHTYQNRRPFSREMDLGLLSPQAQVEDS
Assay: ADP-Glo Kinase Assay, Flt3 wt
Format: biochemical
Conditions: 1 μM compound; read-out: Flt3wt % INH (1 μM)
propertyLabel: inhibition at 1 µM (%)

Check out these entries, answers already filled in.
CC(C)n1c(N2CCNCC2)nc2c(C#N)c(Br)c(Br)cc21	54
CC(C)n1c(N2CCOCC2)nc2c([N+](=O)[O-])c(Br)c(Br)cc21 [Example 22K]	23
CCn1c(N2CCNCC2C)nc2c([N+](=O)[O-])c(Br)c(Br)cc21 (centres unmarked)	18

(P) CC(C)n1c(C2CCC(N)CC2)nc2c([N+](=O)[O-])c(Br)c(Br)cc21 (centres unmarked) [Example 26D]
(Q) Cl.O=[N+]([O-])c1c(Br)c(Br)cc2c1nc(N1CCNCC1)n2C1CCCC1 [Example 2D, hydrochloride]
## Task Could you determine which record has the numerically smaller inhibition at 1 µM? Candidates: P and Q Give the label of your selection.
## Result P

====

Molecular target: Pim-1 (Homo sapiens (Human))
Sequence (P11309 whole entry): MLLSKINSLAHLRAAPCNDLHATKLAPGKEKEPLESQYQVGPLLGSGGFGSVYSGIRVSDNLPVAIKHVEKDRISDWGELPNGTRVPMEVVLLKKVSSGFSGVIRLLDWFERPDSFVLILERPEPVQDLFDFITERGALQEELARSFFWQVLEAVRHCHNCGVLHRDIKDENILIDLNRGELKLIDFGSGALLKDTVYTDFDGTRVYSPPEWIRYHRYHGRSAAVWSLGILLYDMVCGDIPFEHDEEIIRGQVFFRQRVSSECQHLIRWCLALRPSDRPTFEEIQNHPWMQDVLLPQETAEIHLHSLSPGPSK
Assay: ADP-Glo Kinase Assay, Pim-1
Assay type: biochemical
Settings: 1 μM compound; read-out: Pim-1 % INH (1 μM)
Where a name gives a salt, the structure may show the parent alone.
propertyLabel: inhibition at 1 µM

CC(C)n1c(C2CCNCC2)nc2c([N+](=O)[O-])c(Br)c(Br)cc21 [Example 26A]	> 95%
CC(C)n1c(N2CCOC(CN)C2)nc2c([N+](=O)[O-])c(Br)c(Br)cc21 (stereo not shown) [Example 1AQ]	> 95%
CCn1c(N2CCC[C@H](N)C2)nc2c(C#N)c(Br)c(Br)cc21 [Example 1DQ]	> 95%
CC(C)n1c(N2CC[C@@H](N)C2)nc2c(C#N)c(Br)c(Br)cc21 [Example 1BI]	> 95%
CC(C)n1c(N2CCOC(CN)C2)nc2c(C#N)c(Br)c(Br)cc21 (stereo not shown) [Example 1BM]	> 95%

## Task Determine reported inhibition at 1 µM for CCn1c(N2CC[C@H](N)C2)nc2c(C#N)c(Br)c(Br)cc21 [Example 1DR] ; test system: Pim-1 (Homo sapiens (Human)).
## Result > 95%

## Task Determine reported inhibition at 1 µM for CC(C)n1c(N2C[C@H]3C[C@@H]2CN3)nc2c([N+](=O)[O-])c(Br)c(Br)cc21 [Example 22AE] ; test system: Pim-1 (Homo sapiens (Human)).
## Result 76%

## Task Determine reported inhibition at 1 µM for CCn1c(N2CCC(N)CC2)nc2c(C#N)c(Br)c(Br)cc21 [Example 1DS] ; test system: Pim-1 (Homo sapiens (Human)).
## Result > 95%

## Task Determine reported inhibition at 1 µM for C#CCn1c(NCCCN)nc2c([N+](=O)[O-])c(Br)c(Br)cc21 [Example 2G, hydrochloride] ; test system: Pim-1 (Homo sapiens (Human)).
## Result 71%

## Task Determine reported inhibition at 1 µM for CC(C)n1c(N2CCCC(CO)C2)nc2c([N+](=O)[O-])c(Br)c(Br)cc21 (stereo not shown) [Example 22H] ; test system: Pim-1 (Homo sapiens (Human)).
## Result > 95%

## Task Determine reported inhibition at 1 µM for CC(C)n1c(N2CCC[C@H](O)C2)nc2c([N+](=O)[O-])c(Br)c(Br)cc21 [Example 22I] ; test system: Pim-1 (Homo sapiens (Human)).
## Result > 95%

## Task Determine reported inhibition at 1 µM for Cl.O=[N+]([O-])c1c(Br)c(Br)cc2c1nc(N1CCNCC1)n2C1CCCC1 [Example 2D, hydrochloride] ; test system: Pim-1 (Homo sapiens (Human)).
## Result > 95%

====

Target: DYRK1 (Homo sapiens (Human), UniProt Q13627)
Assay: ADP-Glo Kinase Assay, DYRK1
Assay type: biochemical
Details: 1 μM compound; read-out: DYRK1A % INH (1 μM)
Counter-ions that a name gives are not always drawn.
propertyLabel: inhibition at 1 µM (%)

CC(C)Cn1c(N2CCCC(N)C2)nc2c([N+](=O)[O-])c(Br)c(Br)cc21 (stereo not shown)	11

(I) CCn1c(NC2CCCNCC2)nc2c([N+](=O)[O-])c(Br)c(Br)cc21 (stereo not shown)
(II) NCCCNc1nc2c([N+](=O)[O-])c(Br)c(Br)cc2n1C1CCCC1 [Example 2H, hydrochloride]
(III) CC(C)n1c(N2CCOC(CN)C2)nc2c([N+](=O)[O-])c(Br)c(Br)cc21 (stereo not shown)
## Task // smallest inhibition at 1 µM at index 0, largest at the end Answer by listing the labels in the order asked for.
## Result I, III, II
(I: 11%, III: 22%, II: 62%)

====

Target: Pim-1 (Homo sapiens (Human))
Test: ADP-Glo Kinase Assay, Pim-1
Type: biochemical
Conditions: 1 μM compound
Description: Compounds of the present invention were tested for their inhibitory activity against Pim-1, Pim-2, Pim-3, Flt3 wt, Flt3 ITD, CDK2/E and DYRK1. The testing of the compounds was carried out using the ADP-Glo™ Kinase Assay from Promega Corporation (Madison, Wis., USA). The ADP-Glo™ Kinase Assay is a luminescent ADP detection assay to measure kinase activity by quantifying the amount of ADP produced during a kinase reaction. […]
propertyLabel: Pim-1 % INH (1 μM) (%)

CC(C)n1c(N2CCNC[C@H]2C)nc2c([N+](=O)[O-])c(Br)c(Br)cc21 [Example 1AO]	95
CCn1c(N2CCNCC2C)nc2c([N+](=O)[O-])c(Cl)c(Cl)cc21 (centres unmarked) [Example 1DA]	91
O=[N+]([O-])c1c(Br)c(Br)cc2c1nc(N[C@@H]1CCCNC1)n2CC1CC1 [Example 1CH]	82
CCn1c(N2CCCC(N)C2)nc2c([N+](=O)[O-])c(Br)c(Br)cc21.Cl (centres unmarked) [Example 1F]	90
CC(C)n1c(N[C@@H]2CCCNC2)nc2c([N+](=O)[O-])c(Br)c(Br)cc21 [Example 1CA]	77

====

Biological target: DYRK1 (Homo sapiens (Human))
Test: ADP-Glo Kinase Assay, DYRK1
Type: biochemical
Conditions: 1 μM compound
propertyLabel: DYRK1A % INH (1 μM) (%)

N[C@@H]1CCN(c2nc3c([N+](=O)[O-])c(Br)c(Br)cc3n2CCCO)C1 [Example 1DF]	55
CC(C)n1c(N2CCNCC2CO)nc2c([N+](=O)[O-])c(Br)c(Br)cc21 (centres unmarked) [Example 1DN]	38
CCn1c(N2CCC[C@H](N)C2)nc2c([N+](=O)[O-])c(Br)c(Br)cc21 [Example 1AH]	39
CCn1c(N2CCNCC2C)nc2c([N+](=O)[O-])c(Cl)c(Cl)cc21 (centres unmarked) [Example 1DA]	36
COCCn1c(N2CC[C@@H](N)C2)nc2c([N+](=O)[O-])c(Br)c(Br)cc21 [Example 1CS]	37

(a) CC(C)n1c(NC2CNC2)nc2c([N+](=O)[O-])c(Br)c(Br)cc21 [Example 1CR]
(b) CC(C)n1c(N2CCNCC2)nc2c([N+](=O)[O-])c(Br)c(F)cc21 [Example 1CL]
## Task Could you determine which record has the numerically smaller DYRK1A % INH (1 μM)? Candidates: a and b Give the label of your selection.
## Result b

====

Biological target: CDK2/E (Homo sapiens (Human), UniProt P24941)
Assay: ADP-Glo Kinase Assay, CDK2/E
Type: biochemical
Conditions: 1 μM compound; read-out: CDK2/E % INH (1 μM)
propertyLabel: inhibition at 1 µM (%)

Check out these entries, answers already filled in.
CC(C)n1c(N2CCC(N)CC2)nc2c(C#N)c(Br)c(Br)cc21	46
CN[C@@H]1CCN(c2nc3c(C#N)c(Br)c(Br)cc3n2C(C)C)C1	48

(P) CC(C)n1c(C2CCC(N)CC2)nc2c([N+](=O)[O-])c(Br)c(Br)cc21 (stereo not drawn) [Example 26D]
(Q) NCCCNc1nc2c([N+](=O)[O-])c(Br)c(Br)cc2[nH]1
## Task Could you determine which record has the numerically smaller inhibition at 1 µM? Candidates: P and Q Give the label of your selection.
## Result Q
